System: Rattus norvegicus
experiment.summary: Anti-inflammatory activity was assessed by estimating kaolin-induced edema in rat hind paw, by administering orally
Type: functional
stated.conditions: po
Label y when ED30 < 20 mg/kg; otherwise n.

[
  {
    "compound.string": "CN1C(C(=O)Nc2cnccn2)=C(O)c2sccc2S1(=O)=O",
    "target.or.test.system": "Rattus norvegicus",
    "assigned.category": "n"
  },
  {
    "compound.string": "O=C(Nc1ccccn1)C1=C(O)c2sccc2S(=O)(=O)N1",
    "target.or.test.system": "Rattus norvegicus",
    "assigned.category": "n"
  },
  {
    "compound.string": "CN1C(C(=O)Nc2cccc(Cl)c2)=C(O)c2sccc2S1(=O)=O",
    "target.or.test.system": "Rattus norvegicus",
    "assigned.category": "n"
  },
  {
    "compound.string": "CN1C(C(=O)Nc2ccccn2)=C(O)c2sccc2S1(=O)=O",
    "target.or.test.system": "Rattus norvegicus",
    "assigned.category": "y"
  },
  {
    "compound.string": "CN1C(C(=O)Nc2ccccn2)=C(O)c2ccccc2S1(=O)=O",
    "target.or.test.system": "Rattus norvegicus",
    "assigned.category": "y"
  },
  {
    "compound.string": "Cc1cccc(NC(=O)C2=C(O)c3sccc3S(=O)(=O)N2C)c1",
    "target.or.test.system": "Rattus norvegicus",
    "assigned.category": "n"
  },
  {
    "compound.string": "Cc1cccc(NC(=O)C2=C(O)c3sccc3S(=O)(=O)N2C)n1",
    "target.or.test.system": "Rattus norvegicus",
    "assigned.category": "n"
  },
  {
    "compound.string": "CN1C(C(=O)Nc2ccccc2)=C(O)c2sccc2S1(=O)=O",
    "target.or.test.system": "Rattus norvegicus",
    "assigned.category": "n"
  }
]
